Would you mind telling me the reported pIC50 of each entry?
Biological target: Melanocortin receptor 5 (Homo sapiens, UniProt P33032); further: in other assays of this panel Not Active means under 50% inhibition at 10 µM
Sequence (P33032 whole entry): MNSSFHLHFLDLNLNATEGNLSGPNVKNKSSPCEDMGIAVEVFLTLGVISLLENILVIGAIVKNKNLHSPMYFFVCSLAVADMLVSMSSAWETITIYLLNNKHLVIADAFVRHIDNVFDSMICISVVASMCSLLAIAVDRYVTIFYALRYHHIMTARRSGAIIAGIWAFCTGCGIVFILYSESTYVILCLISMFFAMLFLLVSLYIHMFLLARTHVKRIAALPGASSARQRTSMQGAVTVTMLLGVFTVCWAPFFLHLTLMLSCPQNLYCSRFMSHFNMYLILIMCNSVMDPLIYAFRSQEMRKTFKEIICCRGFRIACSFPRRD
Type: cell membranes, HEK293, Membrane
Details: read-out: IC50
Answers are plain numbers, as −log10 of the molar value.

Completed entries (count: 2):
(Q) Need pIC50 of CCCCc1oc2ccccc2c1C(=O)c1cc(I)c(OCCN(CC)CC)c(I)c1 [AMIODARONE] , thanks.
(A) 5.02

(Q) Input CC/C(=C(\c1ccccc1)c1ccc(OCCN(C)C)cc1)c1ccccc1 [TAMOXIFEN]
(A) 4.58

Further cases:
(Q) What pIC50 value was documented for this compound, CN(C)CCCN1c2ccccc2Sc2ccc(Cl)cc21 [CHLORPROMAZINE] ?
(A) 5.12

---

Biological target: Acetylcholinesterase (Homo sapiens, UniProt P22303)
Sequence (P22303 whole entry): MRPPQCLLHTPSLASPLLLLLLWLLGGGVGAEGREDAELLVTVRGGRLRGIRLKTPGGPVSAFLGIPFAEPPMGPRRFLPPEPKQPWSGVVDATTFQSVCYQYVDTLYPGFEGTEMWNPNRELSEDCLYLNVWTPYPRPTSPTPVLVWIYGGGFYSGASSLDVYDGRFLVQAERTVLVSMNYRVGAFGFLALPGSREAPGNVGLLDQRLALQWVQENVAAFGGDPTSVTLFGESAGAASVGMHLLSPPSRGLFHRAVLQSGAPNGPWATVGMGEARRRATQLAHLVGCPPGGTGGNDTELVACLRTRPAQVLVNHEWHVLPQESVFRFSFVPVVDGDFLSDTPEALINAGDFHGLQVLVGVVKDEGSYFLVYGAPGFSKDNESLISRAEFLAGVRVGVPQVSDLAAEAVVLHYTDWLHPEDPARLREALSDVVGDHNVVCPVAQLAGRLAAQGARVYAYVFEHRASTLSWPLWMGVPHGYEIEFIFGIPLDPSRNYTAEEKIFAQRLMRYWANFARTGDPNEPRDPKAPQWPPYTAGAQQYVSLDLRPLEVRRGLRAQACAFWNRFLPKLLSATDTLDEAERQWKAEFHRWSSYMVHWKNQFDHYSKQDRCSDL
Assay: DRUGMATRIX: Acetylcholinesterase enzyme inhibition (substrate: acetylthiocholine)
Type: cell-based, HEK293
Settings: hek293; Not Active = under 50% inhibition at 10 µM
measurementType: IC50

(Q) Any idea what IC50 was measured for CC(=O)O[C@@]12CO[C@@H]1C[C@H](O)[C@@]1(C)C(=O)[C@H](O)C3=C(C)[C@@H](OC(=O)[C@H](O)[C@@H](NC(=O)OC(C)(C)C)c4ccccc4)C[C@@](O)([C@@H](OC(=O)c4ccccc4)[C@H]21)C3(C)C.O.O.O [DOCETAXEL] ?
(A) Not Active

(Q) What do you have for COCCc1ccc(OCC(O)CNC(C)C)cc1 (stereo not drawn) [METOPROLOL] ?
(A) Not Active

(Q) Also Nc1ncn([C@@H]2O[C@H](CO)[C@@H](O)[C@H]2O)c(=O)n1 [AZACITIDINE] ?
(A) Not Active

---

Target: Muscarinic acetylcholine receptor M4 (Homo sapiens); further: in other assays of this panel Not Active means under 50% inhibition at 10 µM
Sequence (P08173 whole entry): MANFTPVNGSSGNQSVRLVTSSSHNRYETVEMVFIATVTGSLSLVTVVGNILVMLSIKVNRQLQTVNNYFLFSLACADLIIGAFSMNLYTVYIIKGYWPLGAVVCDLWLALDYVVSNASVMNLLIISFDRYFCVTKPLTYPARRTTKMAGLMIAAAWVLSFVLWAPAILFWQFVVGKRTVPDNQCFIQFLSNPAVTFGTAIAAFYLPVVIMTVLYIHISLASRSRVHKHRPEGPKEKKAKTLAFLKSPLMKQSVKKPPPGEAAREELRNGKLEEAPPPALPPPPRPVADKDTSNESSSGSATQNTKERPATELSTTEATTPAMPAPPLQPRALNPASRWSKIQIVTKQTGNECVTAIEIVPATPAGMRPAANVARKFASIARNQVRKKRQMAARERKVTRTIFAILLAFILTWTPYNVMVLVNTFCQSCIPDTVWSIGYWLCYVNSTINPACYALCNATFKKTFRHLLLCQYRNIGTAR
Type: cell membranes, CHO-K1, Membrane
Details: read-out: IC50
measurementType: pIC50
Answers are plain numbers, as −log10 of the molar value.

(Q) Can you share its pIC50? I mean this molecule: `CN1CCN(CCCN2c3ccccc3Sc3ccc(Cl)cc32)CC1`
(A) 5.87

(Q) Also, `CN(C)CCCN1c2ccccc2Sc2ccccc21` please.
(A) 6.52

(Q) Further, for `O=C(CCCN1CC=C(n2c(=O)[nH]c3ccccc32)CC1)c1ccc(F)cc1` ?
(A) 5.41

(Q) Next up: `CCCCc1oc2ccccc2c1C(=O)c1cc(I)c(OCCN(CC)CC)c(I)c1`
(A) 5.44

(Q) Same for `CC/C(=C(\c1ccccc1)c1ccc(OCCN(C)C)cc1)c1ccccc1`
(A) 5.32

Each molecule below has a recorded value; state its pIC50.
1. CC(C)N1CCN(c2ccc(OCC3COC(Cn4cncn4)(c4ccc(Cl)cc4Cl)O3)cc2)CC1 (configuration not stated)
2. C1CCC(C(CC2CCCCN2)C2CCCCC2)CC1 (configuration not stated)

(A)
[4.86, 5.44]

---

Target: Carbonic anhydrase 2 (Homo sapiens)
Assay: DRUGMATRIX: Carbonic Anhydrase II enzyme inhibition (substrate: 4-Nitrophenyl acetate (4-NPA))
Format: tissue-based, Erythrocyte
Settings: erythrocyte; Not Active = under 50% inhibition at 10 µM
measurementType: IC50

Example entries and their recorded answers appear below.
(Q) Notebook: pull reported IC50 for Carbonic anhydrase 2 (Homo sapiens), entry `CC(C)(Oc1ccc(Cl)cc1)C(=O)O`
(A) Not Active

(Q) One more compound: `CCOC(=O)N1CCC(=C2c3ccc(Cl)cc3CCc3cccnc32)CC1`
(A) Not Active

(Q) Note, next up: `O=c1[nH]c(=O)n([C@H]2C[C@H](O)[C@@H](CO)O2)cc1I`
(A) Not Active

(Q) Could you do the same for `Cc1ccc(/N=C/N(C)/C=N/c2ccc(C)cc2C)c(C)c1` , please?
(A) Not Active

(Q) Note, next up: Cc1cc(C(C#N)c2ccc(Cl)cc2)c(Cl)cc1NC(=O)c1cc(I)cc(I)c1O (stereo not drawn)
(A) Not Active

(Q) Entry C=C(C)C1(O)OC(=O)C=C1OC (stereo not drawn) please
(A) Not Active

(Q) Here is the next compound: Cc1onc(O)c1CC(N)C(=O)O (racemic) [(R,S)-AMPA]
(A) Not Active

---
(Q) Report IC50 for `C[C@H](CCC(=O)O)[C@H]1CC[C@H]2[C@@H]3[C@H](O)C[C@@H]4C[C@H](O)CC[C@]4(C)[C@H]3C[C@H](O)[C@]12C` tested on Carbonic anhydrase 2 (Homo sapiens).
(A) Not Active

---

Target: Sigma non-opioid intracellular receptor 1 (Homo sapiens, UniProt Q99720)
Sequence (Q99720 whole entry): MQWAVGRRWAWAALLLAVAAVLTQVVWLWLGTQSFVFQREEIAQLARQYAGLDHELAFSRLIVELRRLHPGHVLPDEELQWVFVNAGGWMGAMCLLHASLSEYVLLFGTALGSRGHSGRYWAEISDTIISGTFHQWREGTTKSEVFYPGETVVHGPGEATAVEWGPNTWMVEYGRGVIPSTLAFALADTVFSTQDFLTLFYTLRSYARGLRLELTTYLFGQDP
Experiment: DRUGMATRIX: Sigma1 radioligand binding (ligand: [3H] Haloperidol)
Type: cell membranes, Jurkat, Membrane
Conditions: jurkat; Not Active = under 50% inhibition at 10 µM
measurementType: IC50

(Q) What reported IC50 corresponds to `c1ccc(Nc2ccc(Nc3ccccc3)cc2)cc1` on Sigma non-opioid intracellular receptor 1 (Homo sapiens, UniProt Q99720)?
(A) Not Active

(Q) Cool, now `COc1c(C)c2c(c(O)c1C/C=C(\C)CCC(=O)O)C(=O)OC2`
(A) Not Active

(Q) Also CC(C)[C@@]1(NC(=O)[C@@H]2C[C@@H]3c4cccc5[nH]cc(c45)C[C@H]3N(C)C2)O[C@@]2(O)[C@@H]3CCCN3C(=O)[C@H](Cc3ccccc3)N2C1=O.CS(=O)(=O)O [DIHYDROERGOCRISTINE MESYLATE] , if possible.
(A) Not Active

(Q) Same thing, different molecule: CC(C)(C)NCC(O)c1cc(Cl)c(N)c(Cl)c1 (stereo not drawn)
(A) Not Active

For each entry beneath this line, provide reported IC50.
1. C[C@H](CS)C(=O)N1CCC[C@H]1C(=O)O
2. N[C@@H](Cc1cc(I)c(Oc2ccc(O)c(I)c2)c(I)c1)C(=O)O
3. C[C@@H]1CN(c2c(F)c(N)c3c(=O)c(C(=O)O)cn(C4CC4)c3c2F)C[C@H](C)N1

(A)
1: Not Active; 2: Not Active; 3: Not Active

(Q) Look up IC50 with Sigma non-opioid intracellular receptor 1 (Homo sapiens, UniProt Q99720) for this molecule: CC(C)C(=O)Nc1ccc([N+](=O)[O-])c(C(F)(F)F)c1 [FLUTAMIDE]
(A) Not Active

---

Molecular target: Cysteinyl leukotriene receptor 1 (Homo sapiens, UniProt Q9Y271); further: in other assays of this panel Not Active means under 50% inhibition at 10 µM
Sequence (Q9Y271 whole entry): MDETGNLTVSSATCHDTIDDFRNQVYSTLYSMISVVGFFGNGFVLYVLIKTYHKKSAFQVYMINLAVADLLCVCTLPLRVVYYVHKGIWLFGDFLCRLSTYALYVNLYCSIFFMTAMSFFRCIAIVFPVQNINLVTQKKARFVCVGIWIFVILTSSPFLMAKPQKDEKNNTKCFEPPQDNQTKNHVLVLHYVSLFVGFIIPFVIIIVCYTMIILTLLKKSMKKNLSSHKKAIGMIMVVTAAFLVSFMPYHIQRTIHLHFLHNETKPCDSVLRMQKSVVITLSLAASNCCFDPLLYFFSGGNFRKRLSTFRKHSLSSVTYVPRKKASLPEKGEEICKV
Assay type: cell membranes, CHO-K1, Membrane
Conditions: cho-k1
measurementType: Ki

(Q) What Ki appears in the records for this substance with Cysteinyl leukotriene receptor 1 (Homo sapiens, UniProt Q9Y271)? LIPOPOLYSACCHARIDE E. COLI O55:B5
(A) Not Active

(Q) LEAD (II) ACETATE , same question.
(A) Not Active

(Q) Would you mind doing CADMIUM ACETATE as well?
(A) Not Active

(Q) Repeat for the following substance: SODIUM NITROPRUSSIDE
(A) Not Active

---

Assay: DRUGMATRIX: Interleukin IL-1 radioligand binding (ligand: [125I] interleukin 1beta)
Format: cell membranes, Membrane
Details: nih3t3; Not Active = under 50% inhibition at 10 µM
measurementType: IC50

(Q) Looking for the measured IC50 of CC(C)[C@@]1(NC(=O)[C@@H]2C[C@@H]3c4cccc5[nH]cc(c45)C[C@H]3N(C)C2)O[C@@]2(O)[C@@H]3CCCN3C(=O)[C@H](Cc3ccccc3)N2C1=O.CS(=O)(=O)O [DIHYDROERGOCRISTINE MESYLATE] , can you help?
(A) Not Active

(Q) Moving on to the next molecule: `COc1ccc(C[C@H]2NC[C@H](O)[C@H]2OC(C)=O)cc1`
(A) Not Active

(Q) Quick one: `CC[C@@H](CO)NC(=O)[C@@H]1C=C2c3cccc4[nH]cc(c34)C[C@H]2N(C)C1`
(A) Not Active

---

Please respond with reported pIC50 for every item in the list.
Target: Cytochrome P450 2C9 (Homo sapiens); further: in other assays of this panel Not Active means under 50% inhibition at 10 µM
Sequence (P11712 whole entry): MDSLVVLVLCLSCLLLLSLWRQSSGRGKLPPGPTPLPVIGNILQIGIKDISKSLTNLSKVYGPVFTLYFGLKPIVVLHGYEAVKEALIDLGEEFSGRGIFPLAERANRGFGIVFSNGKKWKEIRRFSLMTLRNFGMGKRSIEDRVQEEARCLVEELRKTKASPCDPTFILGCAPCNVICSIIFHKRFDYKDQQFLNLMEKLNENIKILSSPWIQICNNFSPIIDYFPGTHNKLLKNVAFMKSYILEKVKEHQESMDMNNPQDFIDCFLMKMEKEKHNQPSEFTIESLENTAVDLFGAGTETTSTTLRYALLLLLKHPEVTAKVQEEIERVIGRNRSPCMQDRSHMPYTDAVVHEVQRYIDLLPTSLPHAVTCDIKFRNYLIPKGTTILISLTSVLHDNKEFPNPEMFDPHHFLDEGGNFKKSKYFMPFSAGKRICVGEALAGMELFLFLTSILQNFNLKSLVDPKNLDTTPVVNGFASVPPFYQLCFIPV
Numbers only, as −log10 of the molar value.

Completed entries (count: 2):
(Q) Recorded pIC50 for Cc1cc(C(C#N)c2ccc(Cl)cc2)c(Cl)cc1NC(=O)c1cc(I)cc(I)c1O (centres undefined) , please?
(A) 5.70

(Q) Next compound up: CC(C)[C@@]1(NC(=O)[C@@H]2C[C@@H]3c4cccc5[nH]cc(c45)C[C@H]3N(C)C2)O[C@@]2(O)[C@@H]3CCCN3C(=O)[C@H](Cc3ccccc3)N2C1=O.CS(=O)(=O)O [DIHYDROERGOCRISTINE MESYLATE]
(A) 5.52

// input: 2 compounds below; output: pIC50 for each
1. CCCCc1nc(Cl)c(CO)n1Cc1ccc(-c2ccccc2-c2nnn[nH]2)cc1
2. Cc1c(C)c2c(c(C)c1O)CCC(C)(COc1ccc(CC3SC(=O)NC3=O)cc1)O2 (centres undefined)

(A)
1. 5.54
2. 5.40
